Values compiled from ChEMBL document CHEMBL1157332.

- Test system: SH-SY5Y
- MEASUREMENT PROTOCOL: Neuroprotective effect against 6-OHDA-induced neurotoxicity in human SH-SY5Y cells at 0.1 uM treated 1 hr before 6-OHDA injury after 24 hrs by MTT assay relative to control
- Type: functional
MEASUREMENT TYPE: Activity (%)
The reply should be a number in %, with the unit left off.

Value lookup for Activity; key = COc1cc(OC)cc(C(O[C@@H]2O[C@H](CO)[C@@H](O)[C@H](O)[C@H]2O)C(O)c2ccccc2)c1 (some centres undefined)
29.5

Entry O=C(O[C@@H]1Cc2c(O)cc(O)cc2O[C@@H]1c1cc(O)c(O)c(O)c1)c1cc(O)c(O)c(O)c1 [EPIGALOCATECHIN GALLATE] : reported Activity = ?
20.1

GET /values?readout=Activity&item= Cc1c(O)cc(CCc2ccccc2)cc1O[C@@H]1O[C@H](CO)[C@@H](O)[C@H](O)[C@H]1O
50.9

Using the record for COc1ccc(CCc2cc(O)c(C)c(O[C@@H]3O[C@H](CO)[C@@H](O)[C@H](O)[C@H]3O)c2)cc1 , report its Activity.
31
